Measurement Target: RAF kinases (Homo sapiens, UniProt P15056, V600E)
Sequence (P15056 whole entry V600E): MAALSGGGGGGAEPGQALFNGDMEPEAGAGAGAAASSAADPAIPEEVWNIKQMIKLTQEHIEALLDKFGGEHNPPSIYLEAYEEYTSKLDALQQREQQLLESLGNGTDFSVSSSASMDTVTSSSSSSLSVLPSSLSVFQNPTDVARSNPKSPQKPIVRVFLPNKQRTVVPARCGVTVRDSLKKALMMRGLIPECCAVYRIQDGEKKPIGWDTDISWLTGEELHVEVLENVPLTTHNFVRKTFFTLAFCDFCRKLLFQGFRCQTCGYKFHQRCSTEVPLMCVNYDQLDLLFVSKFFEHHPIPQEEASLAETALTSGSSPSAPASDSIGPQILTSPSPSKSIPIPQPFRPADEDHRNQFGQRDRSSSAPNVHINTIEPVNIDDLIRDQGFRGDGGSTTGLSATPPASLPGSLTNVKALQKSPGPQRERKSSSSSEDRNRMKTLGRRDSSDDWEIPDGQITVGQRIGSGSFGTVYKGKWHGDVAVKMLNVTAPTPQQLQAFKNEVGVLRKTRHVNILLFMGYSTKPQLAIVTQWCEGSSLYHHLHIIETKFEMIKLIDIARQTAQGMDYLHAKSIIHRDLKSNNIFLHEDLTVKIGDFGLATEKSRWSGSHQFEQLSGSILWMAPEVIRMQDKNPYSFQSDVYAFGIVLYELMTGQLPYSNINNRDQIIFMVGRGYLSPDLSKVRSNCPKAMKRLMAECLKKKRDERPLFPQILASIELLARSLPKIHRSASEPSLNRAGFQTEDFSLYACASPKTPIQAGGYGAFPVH
Procedure Text: biochemical
pKd: −log10 of the molar value.
Property Name: pKd

[[record]]
compound = "CCOc1cc2ncnc(Sc3cccc(NC(=O)Nc4cc(C(C)(C)C)on4)c3)c2cc1OC [Ex 50]"
measurement = "6.30 to 6.60"

[[record]]
compound = "COc1cc2c(Oc3cccc(NC(=O)Nc4cc(C(C)(C)C)on4)c3)ncnc2cc1O[C@H]1CCN(CC(F)F)C1 [Ex 103]"
measurement = "6.30 to 6.60"

[[record]]
compound = "COCCOc1cc2ncnc(Oc3cccc(NC(=O)Nc4cc(C(C)(CF)CF)nn4-c4ccccc4)c3)c2cc1OC [Ex 228]"
measurement = "6.00 to 6.30"

[[record]]
compound = "COCCOc1cc(NC(=O)Nc2cccc(Sc3ncnc4cc(OC)c(OC)cc34)c2)cc(C(F)(F)F)c1 [Ex 200]"
measurement = "6.00 to 6.30"


IN: Param readout = pKd; param system = RAF kinases (Homo sapiens, UniProt P15056, V600E); param query = COCCOc1cc2ncnc(Sc3cccc(NC(=O)Nc4ccc(C(F)(F)F)c(OC)c4)c3)c2cc1OC [Ex 233] ; response: value
OUT: 6.00 to 6.30

IN: Observed pKd on RAF kinases (Homo sapiens, UniProt P15056, V600E) for COc1cc2ncnc(Oc3ccc(F)c(NC(=O)Nc4cc(C(C)(C)C)nn4-c4ccccc4)c3)c2cc1OC [Ex 368] , please.
OUT: 6.00 to 6.30

IN: Recorded pKd for COCCOc1cc2ncnc(Sc3cccc(NC(=O)Nc4cc(C(C)(C)C)nn4-c4ccc(C)cc4)c3)c2cc1OC [Ex 277] with RAF kinases (Homo sapiens, UniProt P15056, V600E), please?
OUT: 6.30 to 6.60

IN: Lab note: need pKd for COc1cc2ncnc(Oc3cccc(NC(=O)Nc4cc(C(C)(C)CN5CCOCC5)on4)c3)c2cc1OC [Ex 302] on RAF kinases (Homo sapiens, UniProt P15056, V600E), anyone have it?
OUT: 6.30 to 6.60

IN: Give recorded pKd with RAF kinases (Homo sapiens, UniProt P15056, V600E) for the following compound: COc1cc2ncnc(Oc3cccc(NC(=O)Nc4cc(C5(C(F)(F)F)CCC5)no4)c3)c2cc1OC [Ex 155]
OUT: 6.30 to 6.60

IN: Write down the reported pKd of COCCOc1cc(NC(=O)Nc2cccc(Oc3ncnc4cc(OC)c(OC)cc34)c2)ccc1C(F)(F)F [Ex 147] , test system: RAF kinases (Homo sapiens, UniProt P15056, V600E).
OUT: 6.30 to 6.60

---

The molecules listed here are annotated with their pKd.
Measurement Target: RAF kinases (Homo sapiens)
Condition Label: read-out: RAF1 Kd; RAF1
pKd: −log10 of the molar value.

[[record]]
molecule = "COCCOc1cc2ncnc(Oc3cccc(NC(=O)Nc4cc(C(C)(C)C)nn4-c4ccc(C)cc4)c3)c2cc1OC"
property_name = "pKd"
measurement = "< 6.00"

[[record]]
molecule = "COc1cc2ncnc(Oc3cccc(NC(=O)Nc4cc(C(C)(C)C)nn4-c4cccc(Cl)c4)c3)c2cc1OC"
property_name = "pKd"
measurement = "< 6.00"

[[record]]
molecule = "CCOc1cc2ncnc(Oc3cccc(NC(=O)Nc4cc(C(C)(C)F)no4)c3)c2cc1OC"
property_name = "pKd"
measurement = "> 6.60"

[[record]]
molecule = "COc1cc2ncnc([S+]([O-])c3cccc(NC(=O)Nc4cc(C(C)(C)C)on4)c3)c2cc1OC (stereo not drawn)"
property_name = "pKd"
measurement = "< 6.00"

[[record]]
molecule = "COc1cc2ncnc(Sc3cccc(NC(=O)Nc4cc(C5CC5)nn4-c4ccccc4)c3)c2cc1OC"
property_name = "pKd"
measurement = "> 6.60"

[[record]]
molecule = "CCOc1cc2c(Oc3cccc(NC(=O)Nc4cc(C(C)(CF)CF)on4)c3)ncnc2cc1OC"
property_name = "pKd"
measurement = "> 6.60"

[[record]]
molecule = "COc1cc2ncnc(Sc3cccc(NC(=O)Nc4cc(C(C)(C)C)nn4-c4cccc(F)c4)c3)c2cc1OC"
property_name = "pKd"
measurement = "< 6.00"

[[record]]
molecule = "COCCOc1cc2ncnc(Oc3cccc(NC(=O)Nc4cc(C5CCCC5)on4)c3)c2cc1OC"
property_name = "pKd"
measurement = "> 6.60"

[[record]]
molecule = "COCCOc1cc2ncnc(Oc3cccc(NC(=O)Nc4cc(C(F)(F)F)no4)c3)c2cc1OC"
property_name = "pKd"
measurement = "> 6.60"

[[record]]
molecule = "COCCOc1cc2ncnc(Sc3cccc(NC(=O)Nc4ccc(C(F)(F)F)c(F)c4)c3)c2cc1OC"
property_name = "pKd"
measurement = "< 6.00"


IN: Can you look up the measured pKd of "COc1cc2ncnc(Oc3cccc(NC(=O)Nc4cc(C(F)(F)F)no4)c3)c2cc1OC" for me?
OUT: > 6.60

---

Measurement Target: RAF kinases (Homo sapiens, UniProt P04049)
Sequence (P04049 whole entry): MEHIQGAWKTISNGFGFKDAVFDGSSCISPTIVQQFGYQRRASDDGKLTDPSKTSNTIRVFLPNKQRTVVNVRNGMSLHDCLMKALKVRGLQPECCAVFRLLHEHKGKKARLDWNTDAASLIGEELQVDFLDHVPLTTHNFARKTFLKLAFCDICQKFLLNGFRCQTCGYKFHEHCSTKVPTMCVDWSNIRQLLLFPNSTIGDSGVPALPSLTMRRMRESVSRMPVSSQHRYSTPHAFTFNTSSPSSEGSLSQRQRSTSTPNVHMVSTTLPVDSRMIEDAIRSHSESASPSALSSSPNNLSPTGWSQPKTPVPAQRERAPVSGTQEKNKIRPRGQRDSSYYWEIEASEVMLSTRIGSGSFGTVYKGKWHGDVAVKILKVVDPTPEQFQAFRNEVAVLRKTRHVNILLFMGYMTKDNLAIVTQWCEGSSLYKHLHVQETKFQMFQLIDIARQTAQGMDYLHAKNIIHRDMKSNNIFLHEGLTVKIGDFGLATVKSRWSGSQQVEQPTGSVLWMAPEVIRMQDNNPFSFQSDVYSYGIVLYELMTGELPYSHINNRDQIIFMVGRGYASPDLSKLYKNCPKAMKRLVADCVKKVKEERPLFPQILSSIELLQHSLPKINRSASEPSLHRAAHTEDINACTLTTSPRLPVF
Condition Label: read-out: RAF1 Kd; RAF1
Property Name: Kd

Worked examples follow.
[[record]]
molecule = "COc1cc2ncnc(Oc3cc(NC(=O)Nc4cc(C(C)(C)C)nn4-c4ccc(C)cc4)c(F)cc3F)c2cc1OC [Ex 272]"
measurement = "> 1 µM"

[[record]]
molecule = "COc1cc2ncnc(Oc3cccc(NC(=O)Nc4cc(C(C)(C)C)nn4Cc4ccccc4)c3)c2cc1OC [Ex 357]"
measurement = "> 1 µM"

[[record]]
molecule = "COc1cc2ncnc(Oc3cccc(NC(=O)Nc4cc(C(C)(C)C)nn4-c4cccc(C)c4)c3)c2cc1OC [Ex 285]"
measurement = "> 1 µM"

[[record]]
molecule = "COc1cc2ncnc(Oc3ccc(Cl)c(NC(=O)Nc4cc(C(F)(F)F)nn4-c4ccccc4)c3)c2cc1OC [Ex 300]"
measurement = "> 1 µM"

[[record]]
molecule = "COc1cc2ncnc(Oc3cccc(NC(=O)Nc4cc(C(C)(C)C)nn4C4CCCCC4)c3)c2cc1OC [Ex 330]"
measurement = "> 1 µM"


IN: Looking for the measured Kd of COCCOc1cc2ncnc(Sc3cccc(NC(=O)Nc4cc(C(F)(F)F)nn4-c4ccc(C)cc4)c3)c2cc1OC [Ex 243] , can you help?
OUT: > 1 µM

IN: Data request, read-out Kd, for COc1cc2ncnc(Sc3cccc(NC(=O)Nc4cc(C(C)(C)C)nn4-c4ccc(C)cc4C)c3)c2cc1OC [Ex 284]
OUT: > 1 µM

IN: Fill blank: measured Kd of the molecule COCCOc1cc2ncnc(Oc3cccc(NC(=O)Nc4cc(C(C)(CF)CF)on4)c3)c2cc1OC [Ex 213] is ____.
OUT: < 0.25 µM

IN: What value of measured Kd is listed for COc1cc2ncnc(Oc3cccc(NC(=O)Nc4cccc(C(C)(C)C#N)c4)c3)c2cc1OC [Ex 278] ?
OUT: < 0.25 µM

IN: # query: Kd of entry COc1cc2ncnc(Sc3cccc(NC(=O)Nc4cc(C5(C(F)(F)F)CC5)nn4-c4ccc(C)cc4)c3)c2cc1OC [Ex 347]
OUT: > 1 µM

IN: Given the molecule COc1cc2ncnc(Oc3cc(NC(=O)Nc4cc(C(C)(C)F)no4)ccc3F)c2cc1OC [Ex293] , what is its reported Kd?
OUT: < 0.25 µM

IN: I'd like to know its Kd. The molecule in question is COc1cc2ncnc(Oc3cccc(NC(=O)Nc4cc(C(C)(F)F)nn4-c4cccnc4)c3)c2cc1OC [Ex 311]
OUT: < 0.25 µM

IN: Item COc1cc2ncnc(Oc3cccc(NC(=O)Nc4cc(C(C)(F)F)nn4-c4cncc(F)c4)c3)c2cc1OC [Ex 316] has what recorded Kd?
OUT: < 0.25 µM

---

Measurement Target: UniProt:P04049
Procedure Text: biochemical
Property Name: Kd

IN: Could you share which Kd value was measured for COc1cc2ncnc(Oc3cccc(NC(=O)Nc4cc(C(C)(C)C)on4)c3)c2cc1OCCN1CCOCC1 [Ex 20] ?
OUT: 250 to 500 nM

---

Measurement Target: RAF kinases (Homo sapiens, UniProt P15056, V600E)
Procedure Text: biochemical
Property Name: Kd

Past entries and their recorded results:
[[record]]
structure_notation = "COc1cc2ncnc(Sc3cccc(NC(=O)Nc4cc(C(C)(C)C)nn4-c4ccccc4C)c3)c2cc1OC"
property_name = "Kd"
measurement = "250 to 500 nM"

[[record]]
structure_notation = "COc1cc2ncnc(Sc3cccc(NC(=O)Nc4cc(C5(C(F)(F)F)CC5)nn4-c4ccccc4)c3)c2cc1OC"
property_name = "Kd"
measurement = "250 to 500 nM"

[[record]]
structure_notation = "COc1ccc2c(Sc3cccc(NC(=O)Nc4cc(C(C)(C)C)on4)c3)ncnc2c1"
property_name = "Kd"
measurement = "250 to 500 nM"

[[record]]
structure_notation = "COc1cc2ncnc(Oc3cccc(NC(=O)Nc4cc(C(C)(CF)CF)no4)c3)c2cc1OC"
property_name = "Kd"
measurement = "250 to 500 nM"

[[record]]
structure_notation = "COCCOc1cc2ncnc(Oc3cccc(NC(=O)Nc4ccc(C(F)(F)F)c(OC)c4)c3)c2cc1OC"
property_name = "Kd"
measurement = "250 to 500 nM"

[[record]]
structure_notation = "COc1cc2ncnc(Oc3cccc(NC(=O)Nc4cc(C(=O)N5CCOCC5)cc(C(F)(F)F)c4)c3)c2cc1OC"
property_name = "Kd"
measurement = "500 to 1000 nM"

[[record]]
structure_notation = "CCOc1cc2ncnc(Sc3cccc(NC(=O)Nc4cc(C(C)(C)C)on4)c3)c2cc1OCC"
property_name = "Kd"
measurement = "500 to 1000 nM"

[[record]]
structure_notation = "COc1cc2c(Sc3cccc(NC(=O)Nc4cc(C(C)(C)C)on4)c3)ncnc2cc1OCCN1CCN(CCO)CC1"
property_name = "Kd"
measurement = "< 250 nM"


IN: Identify the measured Kd of "COc1cc2ncnc(Oc3cccc(NC(=O)Nc4cc(C(C)(C)C)nn4-c4ccccc4C(F)(F)F)c3)c2cc1OC" for RAF kinases (Homo sapiens, UniProt P15056, V600E).
OUT: 500 to 1000 nM

IN: Form: Entry = "CCOC(=O)Cn1nc(C(C)(C)C)cc1NC(=O)Nc1cccc(Sc2ncnc3cc(OC)c(OC)cc23)c1" | System = RAF kinases (Homo sapiens, UniProt P15056, V600E) | Kd = ____
OUT: 250 to 500 nM

IN: GET /values?readout=Kd&system=RAF kinases (Homo sapiens, UniProt P15056, V600E)&item= "COc1cc2ncnc(Sc3cccc(NC(=O)Nc4cc(C(F)(F)F)nn4-c4ccc(F)cc4)c3)c2cc1OC"
OUT: 500 to 1000 nM
